- measurementNotes: Metabolic stability in liver microsomes
- Assay type: ADME, Microsome
reportedEndpoint: Km

[in] Need Km, item CC(C)[C@]1(C)SC(N[C@H]2C[C@@H]3CC[C@H]2C3)=NC1=O
[out] > 100 µM

----------
- measurementNotes: Volume of distribution at steady state in Beagle dog at 3 mg/kg, iv or 10 mg/kg, po
- recordedConditions: in vivo, read-out: Vdss
reportedEndpoint: Vd (L/kg)
Entry rule: numbers only, all in L/kg.

[in] Need Vd, item CC(C)[C@]1(C)SC(N[C@H]2C[C@@H]3CC[C@H]2C3)=NC1=O
[out] 1.02

----------
- measurementNotes: Clearance in cynomolgus monkey at 2 mg/kg, iv or 10 mg/kg, po
- recordedConditions: in vivo
reportedEndpoint: clearance (mL/min/kg)
Entry rule: numbers only, all in mL/min/kg.

[in] Need clearance, item CC(C)[C@]1(C)SC(N[C@H]2C[C@@H]3CC[C@H]2C3)=NC1=O
[out] 31.5

----------
- measurementNotes: Terminal half life in cynomolgus monkey at 2 mg/kg, iv or 10 mg/kg, po
- recordedConditions: in vivo, read-out: beta t1/2 (converted)
reportedEndpoint: half-life (min)
Entry rule: numbers only, all in min.

[in] Need half-life, item CC(C)[C@]1(C)SC(N[C@H]2C[C@@H]3CC[C@H]2C3)=NC1=O
[out] 36

----------
- testedTarget: Cytochrome P450 2C9 (Homo sapiens)
- Sequence (P11712 whole entry): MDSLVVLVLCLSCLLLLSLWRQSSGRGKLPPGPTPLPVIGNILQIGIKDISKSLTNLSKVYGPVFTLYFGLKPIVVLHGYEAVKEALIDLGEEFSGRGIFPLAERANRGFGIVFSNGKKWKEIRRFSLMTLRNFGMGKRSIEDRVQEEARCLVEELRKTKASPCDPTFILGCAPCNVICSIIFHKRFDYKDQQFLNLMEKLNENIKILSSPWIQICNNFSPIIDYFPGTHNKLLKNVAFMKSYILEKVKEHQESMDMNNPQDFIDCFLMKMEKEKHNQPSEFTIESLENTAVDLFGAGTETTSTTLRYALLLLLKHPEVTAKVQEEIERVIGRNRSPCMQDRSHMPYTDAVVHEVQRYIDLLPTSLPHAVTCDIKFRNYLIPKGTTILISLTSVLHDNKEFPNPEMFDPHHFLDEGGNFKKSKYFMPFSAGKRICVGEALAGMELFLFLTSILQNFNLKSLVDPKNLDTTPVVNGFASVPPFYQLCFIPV
reportedEndpoint: IC50

[in] Record lookup: for Cytochrome P450 2C9 (Homo sapiens), what IC50 belongs to CC(C)[C@]1(C)SC(N[C@H]2C[C@@H]3CC[C@H]2C3)=NC1=O ?
[out] > 15 µM

----------
- measurementNotes: Clearance in CD1 mouse at 5 mg/kg, iv or 30 mg/kg, po
- Format: ADME, organism-based
- recordedConditions: in vivo
reportedEndpoint: clearance (mL/min/kg)
Entry rule: numbers only, all in mL/min/kg.

[in] Need clearance, item CC(C)[C@]1(C)SC(N[C@H]2C[C@@H]3CC[C@H]2C3)=NC1=O
[out] 52.7

----------
- measurementNotes: Terminal half life in Beagle dog at 3 mg/kg, iv or 10 mg/kg, po
- recordedConditions: in vivo, read-out: beta t1/2 (converted)
reportedEndpoint: half-life (h)
Entry rule: numbers only, all in h.

[in] Need half-life, item CC(C)[C@]1(C)SC(N[C@H]2C[C@@H]3CC[C@H]2C3)=NC1=O
[out] 8.1

----------
- measurementNotes: Clearance in Sprague-Dawley rat at 2 mg/kg, iv or 10 mg/kg, po
- recordedConditions: in vivo
reportedEndpoint: clearance (mL/min/kg)
Entry rule: numbers only, all in mL/min/kg.

[in] Need clearance, item CC(C)[C@]1(C)SC(N[C@H]2C[C@@H]3CC[C@H]2C3)=NC1=O
[out] 22.7

----------
- measurementNotes: Terminal half life in CD1 mouse at 5 mg/kg, iv or 30 mg/kg, po
- Assay type: ADME, organism-based
- recordedConditions: in vivo, read-out: beta t1/2 (converted)
reportedEndpoint: half-life (h)
Entry rule: numbers only, all in h.

[in] Need half-life, item CC(C)[C@]1(C)SC(N[C@H]2C[C@@H]3CC[C@H]2C3)=NC1=O
[out] 15.6

----------
- measurementNotes: Clearance in Beagle dog at 3 mg/kg, iv or 10 mg/kg, po
- recordedConditions: in vivo
reportedEndpoint: clearance (mL/min/kg)
Entry rule: numbers only, all in mL/min/kg.

[in] Need clearance, item CC(C)[C@]1(C)SC(N[C@H]2C[C@@H]3CC[C@H]2C3)=NC1=O
[out] 15.7
